Source: patent US20090275557A1

Test: Pharmacokinetic study, oral gavage in fasted male Sprague-Dawley rats
Assay type: in vivo, rat
Details: male, Sprague-Dawley, rat, plasma, po, 10 mg/kg, mean; oral gavage 10 mg/kg; extrapolated to infinity
value_type: AUC(0-inf) (ng·h/mL)
A number alone suffices; assume ng·h/mL.

Record NCC(=O)NCCCN1CCC(CCCN2c3ccccc3Sc3ccc(C(F)(F)F)cc32)CC1 [ICI-1260] . Reported AUC(0-inf): 102

###

Assay: Pharmacokinetic study, oral gavage in fasted male Sprague-Dawley rats
Type: in vivo, rat
Details: male, Sprague-Dawley, rat, plasma, po, 10 mg/kg, mean; oral gavage 10 mg/kg; 1.0 hr
The entries below come with measured concentration at 1 hr values attached.
Value expressed in ng/mL; do not type the unit.

>>> result_number("CNCC(=O)NCCCN1CCC(CCCN2c3ccccc3Sc3ccc(C(F)(F)F)cc32)CC1 [ICI-1259]")
9.21

The record that follows has no concentration at 1 hr shown yet.
For record NCC(=O)NCCCN1CCC(CCCN2c3ccccc3Sc3ccc(C(F)(F)F)cc32)CC1 [ICI-1260] the listed concentration at 1 hr is 12.2
